Measured remaining activity at 0.1 µM, listed per entry.
targetOfAssay: GSPT1 (Homo sapiens)
Construct: endogenous in cells; host or cells: MHH-CALL-4
Sequence (P15170 whole entry): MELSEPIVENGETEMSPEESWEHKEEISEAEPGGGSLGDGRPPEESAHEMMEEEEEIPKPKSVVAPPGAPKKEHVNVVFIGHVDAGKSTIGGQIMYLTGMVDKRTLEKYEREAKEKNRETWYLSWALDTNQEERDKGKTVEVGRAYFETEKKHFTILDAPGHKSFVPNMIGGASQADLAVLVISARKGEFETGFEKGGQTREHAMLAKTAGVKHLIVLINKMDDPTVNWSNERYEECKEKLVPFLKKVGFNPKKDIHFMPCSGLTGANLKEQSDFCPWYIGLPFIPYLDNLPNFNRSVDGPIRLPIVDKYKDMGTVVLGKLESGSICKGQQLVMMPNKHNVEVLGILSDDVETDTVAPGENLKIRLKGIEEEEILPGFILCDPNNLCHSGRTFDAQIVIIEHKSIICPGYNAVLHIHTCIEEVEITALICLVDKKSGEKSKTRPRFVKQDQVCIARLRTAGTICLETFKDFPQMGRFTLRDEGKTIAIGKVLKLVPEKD
procedureDetails: Western blot assay, GSPT1 neosubstrate degradation
Type: cell-based
conditionLabel: MHHCALL4; 100 nM, 24 h; MHH-CALL-4 cells; vehicle control = 100%
The reply should contain only the number, in %.

| compound | targetOfAssay | readoutKind | number |
| --- | --- | --- | --- |
| CCS(=O)(=O)N1CC(CC#N)(n2cc(-c3nc(Nc4ccc(C(=O)NCCCN5CC6CCC5CN6c5ccc(C6CCC(=O)NC6=O)cc5)cc4)nc4[nH]ccc34)cn2)C1 (stereo not shown) [Compound 54] | GSPT1 (Homo sapiens) | remaining activity at 0.1 µM | 125 |
| CCS(=O)(=O)N1CC(CC#N)(n2cc(-c3nc(Nc4ccc(C(=O)NCCCN5CCN(c6cccc(C7CCC(=O)NC7=O)c6)CC5)cc4)nc4[nH]ccc34)cn2)C1 (stereo not shown) [Compound 42] | GSPT1 (Homo sapiens) | remaining activity at 0.1 µM | 76 |
| CCS(=O)(=O)N1CC(CC#N)(n2cc(-c3nc(Nc4ccc(C(=O)NCCCN5CCN(c6ccc(C7CCC(=O)NC7=O)cc6)CC5)cc4)nc4[nH]ccc34)cn2)C1 (stereo not shown) [Compound 10] | GSPT1 (Homo sapiens) | remaining activity at 0.1 µM | 109 |

Next compound, remaining activity at 0.1 µM to be filled in.
remaining activity at 0.1 µM recorded for this compound, CCS(=O)(=O)N1CC(CC#N)(n2cc(-c3nc(Nc4ccc(C(=O)NCCOCCOc5ccc(C6CCC(=O)NC6=O)cc5)cc4)nc4[nH]ccc34)cn2)C1 (stereo not shown) [Compound 11] , is 130

---

Measured remaining activity at 0.1 µM, listed per entry.
targetOfAssay: JAK3 (Homo sapiens, UniProt P52333)
Construct: endogenous in cells; host or cells: MHH-CALL-4
Sequence (P52333 1-1124): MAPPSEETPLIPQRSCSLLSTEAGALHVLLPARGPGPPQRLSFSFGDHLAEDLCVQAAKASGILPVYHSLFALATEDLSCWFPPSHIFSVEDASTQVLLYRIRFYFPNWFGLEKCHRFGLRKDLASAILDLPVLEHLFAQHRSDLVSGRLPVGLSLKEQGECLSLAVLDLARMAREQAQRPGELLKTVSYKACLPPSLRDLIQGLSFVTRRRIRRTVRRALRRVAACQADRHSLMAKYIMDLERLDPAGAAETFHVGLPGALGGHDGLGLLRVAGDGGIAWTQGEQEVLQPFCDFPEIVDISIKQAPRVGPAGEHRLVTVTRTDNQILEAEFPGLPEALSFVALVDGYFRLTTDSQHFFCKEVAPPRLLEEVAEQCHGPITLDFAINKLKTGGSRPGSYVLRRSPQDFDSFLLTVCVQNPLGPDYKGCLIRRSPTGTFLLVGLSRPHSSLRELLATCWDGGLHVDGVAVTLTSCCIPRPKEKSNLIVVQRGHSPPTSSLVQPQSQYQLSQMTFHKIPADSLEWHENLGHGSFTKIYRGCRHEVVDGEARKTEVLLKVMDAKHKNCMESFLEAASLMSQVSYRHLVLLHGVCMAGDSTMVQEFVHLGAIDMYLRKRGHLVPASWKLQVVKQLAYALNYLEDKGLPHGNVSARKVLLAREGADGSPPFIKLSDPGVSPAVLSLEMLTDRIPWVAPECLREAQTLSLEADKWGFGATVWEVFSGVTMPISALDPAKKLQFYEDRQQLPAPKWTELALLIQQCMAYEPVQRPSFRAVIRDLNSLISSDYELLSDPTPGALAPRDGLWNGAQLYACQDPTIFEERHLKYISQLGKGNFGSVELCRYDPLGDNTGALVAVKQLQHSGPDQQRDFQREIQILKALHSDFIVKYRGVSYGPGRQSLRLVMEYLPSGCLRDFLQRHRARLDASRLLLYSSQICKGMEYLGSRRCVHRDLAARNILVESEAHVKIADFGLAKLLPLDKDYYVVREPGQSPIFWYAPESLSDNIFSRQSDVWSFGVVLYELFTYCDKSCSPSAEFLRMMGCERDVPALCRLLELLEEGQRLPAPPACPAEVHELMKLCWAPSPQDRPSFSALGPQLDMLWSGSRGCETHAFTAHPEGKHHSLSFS
procedureDetails: Western blot assay, JAK3 protein degradation
Assay type: cell-based
conditionLabel: MHHCALL4; 100 nM, 24 h; MHH-CALL-4 cells; vehicle control = 100%; read-out: Target Protein Degradation (% remaining at 100 nM, 24 h) JAK3
The reply should contain only the number, in %.

// below: answered molecules
| molecule | number |
| --- | --- |
| CCS(=O)(=O)N1CC(CC#N)(n2cc(-c3nc(Nc4ccc(C(=O)NCCCNC(=O)COc5ccc(C6CCC(=O)NC6=O)cc5)cc4)nc4[nH]ccc34)cn2)C1 (stereo not drawn) | 80 |
| CCS(=O)(=O)C1CC(CC#N)(n2cc(-c3nc(Nc4ccc(C(=O)N5CCC(c6ccc7c(c6)C(=O)N(C6CCC(=O)NC6=O)C7=O)CC5)cc4)nc4[nH]ccc34)cn2)C1 (stereo not drawn) | 92 |

Next molecule, remaining activity at 0.1 µM to be filled in.
remaining activity at 0.1 µM recorded for this molecule, CCS(=O)(=O)N1CC(CC#N)(n2cc(-c3nc(Nc4ccc(C(=O)NCC5CCN(c6ccc7c(c6)C(=O)N(C6CCC(=O)NC6=O)C7=O)CC5)cc4)nc4[nH]ccc34)cn2)C1 (stereo not drawn) , is 54

Origin of values: patent US20240124465A1
